# EXPERIMENT: Serum T3, T4, Triac and Tetrac levels in infused rats
# Assay type: in vivo
# CONDITIONS: male, SIVZ, rat, intraperitoneal, T4 infusion 1.5 nmol/day/100 g BW, mean ± SEM, read-out: Serum T4
METRIC_NAME: concentration at 13 days
The answer consists of two parts: a number and, after it, its unit.

*Q* Report concentration at 13 days for N[C@@H](Cc1cc(I)c(Oc2cc(I)c(O)c(I)c2)c(I)c1)C(=O)O [T4, L-thyroxine, reference compound] please.
*A* 0.0771 µM

----------
# EXPERIMENT: Serum T3, T4, Triac and Tetrac levels in infused rats
# Type: in vivo
# CONDITIONS: male, SIVZ, rat, intraperitoneal, Tetrac infusion 4.5 nmol/day/100 g BW, mean ± SEM, read-out: Serum Tetrac
# Experimental: Seventy-nine male SIVZ rats were purchased from the breeder (Institut für Labortierkunde des Universität Zürich, Zürich, Switzerland). […] Hornone assays. Total serum T4, T3, Tetrac, Triac and TSH levels (intra-assay coefficient of variation 7 to 10%, inter-assay coefficient of variation 12 to 15%) were measured using the method of Burger, A., Sakoloff, C., Staeheli, V., Vallotton, M. D., and Ingbar, S. H. Acta. […]
METRIC_NAME: concentration at 13 days (nM)
I only need the number, in nM, no unit after it.

*Q* Report concentration at 13 days for "O=C(O)Cc1cc(I)c(Oc2cc(I)c(O)c(I)c2)c(I)c1" please.
*A* 332

----------
# EXPERIMENT: Serum T3, T4, Triac and Tetrac levels in infused rats
# Format: in vivo
# CONDITIONS: male, SIVZ, rat, intraperitoneal, Tetrac infusion 1.5 nmol/day/100 g BW, mean ± SEM, read-out: Serum Tetrac
# Procedure: Seventy-nine male SIVZ rats were purchased from the breeder (Institut für Labortierkunde des Universität Zürich, Zürich, Switzerland). […] Hornone assays. Total serum T4, T3, Tetrac, Triac and TSH levels (intra-assay coefficient of variation 7 to 10%, inter-assay coefficient of variation 12 to 15%) were measured using the method of Burger, A., Sakoloff, C., Staeheli, V., Vallotton, M. D., and Ingbar, S. H. Acta. […]
METRIC_NAME: concentration at 13 days (nM)
I only need the number, in nM, no unit after it.

*Q* Report concentration at 13 days for "O=C(O)Cc1cc(I)c(Oc2cc(I)c(O)c(I)c2)c(I)c1" please.
*A* 168

----------
# EXPERIMENT: Serum T3, T4, Triac and Tetrac levels in infused rats
# Assay type: in vivo
# CONDITIONS: male, SIVZ, rat, intraperitoneal, Tetrac infusion 40.5 nmol/day/100 g BW, mean ± SEM, read-out: Serum Tetrac
METRIC_NAME: concentration at 13 days (nM)
I only need the number, in nM, no unit after it.

*Q* Report concentration at 13 days for "O=C(O)Cc1cc(I)c(Oc2cc(I)c(O)c(I)c2)c(I)c1" please.
*A* 406

----------
# EXPERIMENT: Serum T3, T4, Triac and Tetrac levels in infused rats
# Assay type: in vivo
# CONDITIONS: male, SIVZ, rat, intraperitoneal, Tetrac infusion 13.5 nmol/day/100 g BW, mean ± SEM, read-out: Serum Tetrac
METRIC_NAME: concentration at 13 days (nM)
I only need the number, in nM, no unit after it.

*Q* Report concentration at 13 days for "O=C(O)Cc1cc(I)c(Oc2cc(I)c(O)c(I)c2)c(I)c1" please.
*A* 458
